These measurements were taken from PubChem BioAssay (NCI).

Field: growth. Provide a value for each of the compounds that follow.
System: OVCAR-8 ovarian
testName: NCI-60 one-dose screen, 48 h (100 = growth as untreated, 0 = no growth, -100 = all killed)
conditions: 10 µM unless noted
This is part of a sample that, as a whole, favours compounds with a hit. Of some 83,000 tested, about 20% had one in any assay. Calls of active or inactive are those of the source. The calls were made as follows: active = growth percent below 10; inactive = the rest.

The compound COc1ccc2nc(NC(=O)CN3CCn4c(nnc4C(F)(F)F)C3)sc2c1 , tested on OVCAR-8 ovarian, showed growth of 96.5% (inactive)

Form field, growth with OVCAR-8 ovarian, item ICCC(c1ccccc1)(c1ccccc1)c1ccccc1 : 70.8% (inactive)

Record O=C(Nc1ccccc1S)c1ccccc1 ; system OVCAR-8 ovarian; growth = 105% (inactive)

Lab entry: OVCAR-8 ovarian assay, compound COc1cc(NC(=O)NCc2ccco2)ccc1-c1ccc(NC(=O)NCc2ccco2)cc1OC , growth = 36.7% (inactive)

// growth (OVCAR-8 ovarian) for COc1ccc(C2CC(c3ccc(Nc4ccnc5cc(Cl)ccc45)cc3)=NN2C(C)=O)cc1 (configuration not stated) = 72.8% (inactive)

Response field growth (OVCAR-8 ovarian) for item COc1ccc(-c2ccc(O)c(C(=O)/C=C/c3cc(OC)c(OC)c(OC)c3)c2)cc1 : 71.8% (inactive)

// growth (OVCAR-8 ovarian) for O=c1oc2c(cc1-c1ccc([N+](=O)[O-])cc1)C(O)Oc1ccccc1-2 (configuration not stated) = 94.7% (inactive)

Lab entry: OVCAR-8 ovarian assay, compound COc1ccc([N+](=O)[O-])c(S(=O)(=O)c2ccc(Cl)cc2)n1 , growth = 71.7% (inactive)

Fill in: OVCAR-8 ovarian growth for COc1cc(C2CC(C3C(=O)N(C)C(=O)N(C)C3=O)=NN2c2cc(Cl)cc(Cl)c2)cc(OC)c1OC (configuration not stated) = 96.7% (inactive)

Reported growth (OVCAR-8 ovarian) for entry O=C1Nc2ccc(Cl)cc2[C@@](C#CC2CC2)(C(F)(F)F)O1 is 91.3% (inactive)

Tested system OVCAR-8 ovarian; growth recorded for COc1cc(/C=C/C(=O)c2c(C)n([O-])c3ccccc3[n+]2=O)cc(OC)c1OC was 30.6% (inactive)

Considering Cc1ccc(C(=O)Cc2ccccc2)c(O)c1 , its growth with OVCAR-8 ovarian was recorded as 104% (inactive)

The compound O=C(O)C1CCN(S(=O)(=O)c2ccc(-c3ccccc3)cc2)CC1 , when measured on OVCAR-8 ovarian, yielded growth of 81.4% (inactive)

Measured on OVCAR-8 ovarian, CNc1nc(NC2CCCC2)nc(Sc2ccc(OC)cc2)n1 has a documented growth of 20.2% [100 µM] (inactive)

Considering O=C1CSC(c2ccccc2O)N1c1nnc(Cn2ccnc2)o1 (configuration not stated) , its growth with OVCAR-8 ovarian was recorded as 58.8% (inactive)

Entry O=C(Nc1nn2c(-c3cc(C(F)(F)F)cc(C(F)(F)F)c3)nnc2s1)C1CCCC1 , OVCAR-8 ovarian data, growth value: 12% (inactive)

Case COc1cccc(/C=N\NC(=O)c2ccncc2)c1O , OVCAR-8 ovarian, growth recorded as 58.7% (inactive)

Reported growth (OVCAR-8 ovarian) for entry CCC(=O)Nc1cc2c(cc1Cl)-c1ccccc1C2 is 98% (inactive)

Measured growth for this entry CNCCCn1c2c(c3ccc(F)cc3c1=O)C(=O)c1cc(OC)cnc1-2 on OVCAR-8 ovarian: -19.8% (active)

Reported growth (OVCAR-8 ovarian) for entry NS(=O)(=O)c1ccc(-n2nc(-c3ccc(Br)cc3)ccc2=O)cc1 is 88.2% [100 µM] (inactive)

Field growth (system: OVCAR-8 ovarian) for entry O=C1c2cccc(NCCN=Cc3ccccc3O)c2C(=O)c2c(NCCN=Cc3ccccc3O)cccc21 = 17% (inactive)

Field growth (OVCAR-8 ovarian), entry NC(=O)NC1(C(=O)O)CCCC1 : 106% (inactive)

---

Test system: SF-268 CNS
testName: NCI-60 one-dose screen, 48 h
conditions: 10 µM unless noted
The panel holds about 83,000 compounds, 20% with a hit somewhere; the sample as a whole holds those more often. Calls of active or inactive are those of the source. Rule for the calls: active = growth percent below 10; inactive = the rest.
# output must be one of active, inactive

Please state the recorded outcome for this compound: CS(=O)(=O)N1CCN(Cc2cc3nc(-c4cccc5[nH]ncc45)nc(N4CCOCC4)c3s2)CC1 (tested in a mixture with another compound)
inactive

What is the recorded call for this compound in the test? COc1cc(-c2nnc(-c3nc(-c4cc(OC)c(OC)c(OC)c4)n4ccccc34)o2)ccc1N
inactive

Identify the outcome logged in this assay for the compound shown: O=C1CSC(c2ccccc2Cl)N1c1nnc(Cn2nnc3ccccc32)o1 (centres undefined)
inactive

// outcome(item) with item = O=C1NC(=S)S/C1=C\c1cc(Br)ccc1O
inactive

Could you check what this test reported for Cc1cc(C)nc(NS(=O)(=O)c2ccc(Nc3nc4nc(SCc5ccccc5)nc(-c5ccc(O)cc5)c4c(=O)[nH]3)cc2)n1 ?
inactive

Hi, do you know how CCSc1ncc(Br)c(Sc2nc(N)nc3nc[nH]c23)n1 came out in this test?
inactive

Write down the call the test reported for this compound. Item: COc1ccc(OC)c2c1CCC1(C2)NC(=O)NC1=O (centres undefined)
inactive

Given CSc1nc2nc3c(c(-c4ccc(C)cc4)c2c(=O)[nH]1)CN(C)C/C3=C\c1ccc(C)cc1 , state the outcome it received in this test.
inactive

Each compound tested received a call. Report the one for N#Cc1c(-c2ccccc2)cc(-c2ccccc2)n(CCCC(=O)O)c1=O .
inactive

Assay outcome for Cc1cc(C)c2c(N)c3cccc(C)c3nc2n1 : what was it?
active

# fetch the recorded call for NS(=O)(=O)c1cc(C2(O)NC(=O)c3ccccc32)ccc1Cl (centres undefined) here
inactive

Please indicate how the test categorized Nc1nc(Nc2ccccc2SSc2ccccc2Nc2nc(N)nc(-c3cccc(Cl)c3)n2)nc(-c2cccc(Cl)c2)n1 .
inactive

Which outcome was assigned to COc1ccc2c(c1)c(CC(=O)[Se]C)c(C)n2C(=O)c1ccc(Cl)cc1 in this test?
active

Recorded test outcome, item CCOc1cc(/C=C/C(=O)CC(=O)/C=C/c2ccc(OC(=O)CNCCN(CC)CC)c(OCC)c2)ccc1OC(=O)CNCCN(CC)CC
active

Answer briefly: the call reported for O=[N+]([O-])c1ccc(NS(=O)(=O)c2ccc(Cl)c(Cl)c2)cc1 in this assay.
inactive

Assay result, entry Cc1c2oc3c(C)ccc(C(=O)OC(C)C4NC(=O)C(C(C)C)N(C)C(=O)CN(C)C(=O)C5CCCN5C(=O)C(C(C)C)NC4=O)c3nc-2c(C(=O)OC(C)C2NC(=O)C(C(C)C)N(C)C(=O)CN(C)C(=O)C3CCCN3C(=O)C(C(C)C)NC2=O)c(N)c1=O (centres undefined) — outcome?
active

Name the outcome recorded for COc1ccc(C(=O)COc2cccc(/C=C3\CSc4ccc(Cl)cc4C3=O)c2)cc1 in the assay.
inactive

Can you look up the reported call for O=C(Oc1cccc2ccccc12)c1ccccc1C(=O)c1ccccc1 for me?
inactive

For N#Cc1ncc(-c2ccc(C(F)(F)F)cc2)c(NC2CCCCCC2)n1 , what call appears in the results of this test?
inactive

Field: outcome | Entry: COc1cc(C2=NN(C=O)C(c3cccc(Nc4ccnc5cc(Cl)ccc45)c3)C2)cc(OC)c1OC (centres undefined)
inactive

For COc1ccc2cc(C3=CC(=O)CCC3)ccc2c1 , what call appears in the results of this test?
inactive

Kindly provide the recorded test outcome for the following compound: Cc1cc(=O)oc2cc(OCCn3c(C)nn(-c4ccc(Cl)cc4)c3=O)ccc12
inactive

Assay outcome for COc1ccc(CCN2C(=O)CCC3=C2CCCC3=O)cc1OC : what was it?
inactive

Entry COCCOCCOCCOCCOc1ccc2c(c1)C(=O)c1nc3ncccc3c(=O)n1-2 : call = ?
active

---

For each entry below, report its growth value.
System: BT-549 breast
testName: NCI-60 one-dose screen, 48 h (100 = growth as untreated, 0 = no growth, -100 = all killed)
conditions: 10 µM unless noted
Compounds without any hit were thinned out: in the full panel of roughly 83,000, 20% have a hit. Calls of active or inactive are those of the source. Rule for the calls: active = growth percent below 10; inactive = the rest.

growth for COc1ccc(C2=NN(C(C)=O)C(c3c(C)nn(-c4ccccc4)c3N3CCOCC3)C2)cc1 (stereo unspecified) is 77% (inactive)

Recorded result, CC(C)CNc1nc(N=[N+]=[N-])nc(NCC(C)C)n1 , growth: 56.9% [100 µM] (inactive)

For record c1ccc(CN=C(NCc2ccccc2)NCc2ccccc2)cc1 the listed growth is 82.2% (inactive)

Looking up O=C(CNC(=O)c1cccc2ccccc12)Nc1ccccc1Cc1ccccc1 , I found its growth recorded as 40.3% [5 µM] (inactive)

Given item O=C(N/N=C/c1cccc([N+](=O)[O-])c1)c1ccc(Br)o1 , the value recorded as its growth is 103% (inactive)

Just so you know, measured growth for Cc1ncc(C(=O)Nc2ccc(CN3CCN(C)CC3)c(C(F)(F)F)c2)cc1C#Cc1cncc2ncccc12 came out at 85.4% (inactive)
